target: Biotinylated recombinant human CD3εδ (Acro Biosystems, CDD-H82W6) (human) (UniProt P07766); assay: Octet BLI, biotinylated CD3εδ on streptavidin sensors, 1:1 model
Sequence (P07766 23-126, stated change not applied, chain 1 of 2): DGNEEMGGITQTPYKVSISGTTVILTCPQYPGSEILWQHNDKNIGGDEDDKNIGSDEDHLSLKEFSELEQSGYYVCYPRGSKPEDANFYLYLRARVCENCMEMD
Sequence (P04234 22-105, stated change not applied, chain 2 of 2, further chain): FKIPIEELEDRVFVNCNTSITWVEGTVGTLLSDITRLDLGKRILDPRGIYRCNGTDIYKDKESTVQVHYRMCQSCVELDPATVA

Binder: EGFR-CD3 DuetMab with anti-CD3 variant AZ Vκ 17 + AZ VH E79 (bispecific antibody, part only; not given: anti-EGFR arm, constant regions, V domains shown, not shown: another chain or arm of the molecule; a dimerising Fc or GST; small tags and cut ends) VH: EVQLVESGGALVKPGGSLRLSCAASGFTFTEAWMHWVRQAPGKQLEWVAQIKDRSQTYATYYAESVKGRFTISRDDSKNTLYLQMNSLKTEDTAVYYCRGVYYAVTPFDYWGQGTLVTVSS VL: DIVMTQSPLSLPVTPGEPASISCRSSQSLVHNTGNTYLSWYLQKPGQSPQSLIYKVSNRASGVPDRFSGSGSGTDFTLKISRVEAEDVGVYYCGQGTQAPFTFGSGTKVEIK
kon (M⁻¹ s⁻¹): 8850

Binder: EGFR-CD3 DuetMab with anti-CD3 variant AZ Vκ 17 + AZ VH R75 (bispecific antibody, part only; not given: anti-EGFR arm, constant regions, V domains shown, not shown: another chain or arm of the molecule; a dimerising Fc or GST; small tags and cut ends) VH: EVQLVESGGALVKPGGSLRLSCAASGFTFTRAWMHWVRQAPGKQLEWVAQIKDRSQTYATYYAESVKGRFTISRDDSKNTLYLQMNSLKTEDTAVYYCRGVYYANAPFDYWGQGTLVTVSS VL: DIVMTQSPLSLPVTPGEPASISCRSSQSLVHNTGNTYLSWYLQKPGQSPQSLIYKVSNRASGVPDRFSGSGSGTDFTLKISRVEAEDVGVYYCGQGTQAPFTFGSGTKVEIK
kon (M⁻¹ s⁻¹): 24200

Binder: EGFR-CD3 DuetMab with anti-CD3 variant AZ Vκ 17 + AZ VH E75 (bispecific antibody, part only; not given: anti-EGFR arm, constant regions, V domains shown, not shown: another chain or arm of the molecule; a dimerising Fc or GST; small tags and cut ends) VH: EVQLVESGGALVKPGGSLRLSCAASGFTFTEAWMHWVRQAPGKQLEWVAQIKDRSQTYATYYAESVKGRFTISRDDSKNTLYLQMNSLKTEDTAVYYCRGVYYANAPFDYWGQGTLVTVSS VL: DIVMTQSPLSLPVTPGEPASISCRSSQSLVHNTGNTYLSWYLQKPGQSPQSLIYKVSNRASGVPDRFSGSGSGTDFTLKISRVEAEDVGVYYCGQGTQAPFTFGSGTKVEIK
kon (M⁻¹ s⁻¹): 7100

Binder: EGFR-CD3 DuetMab with anti-CD3 variant AZ Vκ 26 + AZ VH E79 (bispecific antibody, part only; not given: anti-EGFR arm, constant regions, V domains shown, not shown: another chain or arm of the molecule; a dimerising Fc or GST; small tags and cut ends) VH: EVQLVESGGALVKPGGSLRLSCAASGFTFTEAWMHWVRQAPGKQLEWVAQIKDRSQTYATYYAESVKGRFTISRDDSKNTLYLQMNSLKTEDTAVYYCRGVYYAVTPFDYWGQGTLVTVSS VL: DIVMTQSPLSLPVTPGEPASISCRSSQSLVHNTGNTYLSWYLQKPGQSPQSLIYKVSNRASGVPDRFSGSGSGTDFTLKISRVEAEDVGVYYCGQGTQAPFSFGSGTKVEIK
kon (M⁻¹ s⁻¹): 11000

Binder: EGFR-CD3 DuetMab with the parental anti-CD3 arm (bispecific antibody, part only; not given: anti-EGFR arm, constant regions, V domains shown, not shown: another chain or arm of the molecule; a dimerising Fc or GST; small tags and cut ends) VH: QVQLVESGGGVVQPGRSLRLSCAASGFTFTKAWMHWVRQAPGKQLEWVAQIKDKSNSYATYYADSVKGRFTISRDDSKNTLYLQMNSLRAEDTAVYYCRGVYYALSPFDYWGQGTLVTVSS VL: DIVMTQTPLSLSVTPGQPASISCKSSQSLVHNNANTYLSWYLQKPGQSPQSLIYKVSNRFSGVPDRFSGSGSGTDFTLKISRVEAEDVGVYYCGQGTQYPFTFGSGTKVEIK
kon (M⁻¹ s⁻¹): 43300

Binder: EGFR-CD3 DuetMab with anti-CD3 variant AZ Vκ 17 + AZ VH SN75 (bispecific antibody, part only; not given: anti-EGFR arm, constant regions, V domains shown, not shown: another chain or arm of the molecule; a dimerising Fc or GST; small tags and cut ends) VH: EVQLVESGGALVKPGGSLRLSCAASGFTFSNAWMHWVRQAPGKQLEWVAQIKDRSQTYATYYAESVKGRFTISRDDSKNTLYLQMNSLKTEDTAVYYCRGVYYANAPFDYWGQGTLVTVSS VL: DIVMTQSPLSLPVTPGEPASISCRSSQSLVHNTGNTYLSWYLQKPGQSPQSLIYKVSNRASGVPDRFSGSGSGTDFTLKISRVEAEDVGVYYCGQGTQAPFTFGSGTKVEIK
kon (M⁻¹ s⁻¹): 10800

Binder: EGFR-CD3 DuetMab with anti-CD3 variant AZ Vκ 29 + AZ VH E79 (bispecific antibody, part only; not given: anti-EGFR arm, constant regions, V domains shown, not shown: another chain or arm of the molecule; a dimerising Fc or GST; small tags and cut ends) VH: EVQLVESGGALVKPGGSLRLSCAASGFTFTEAWMHWVRQAPGKQLEWVAQIKDRSQTYATYYAESVKGRFTISRDDSKNTLYLQMNSLKTEDTAVYYCRGVYYAVTPFDYWGQGTLVTVSS VL: DIVMTQSPLSLPVTPGEPASISCRSSQSLVHNTGNTYLSWYLQKPGQSPQSLIYKVSNRASGVPDRFSGSGSGTDFTLKISRVEAEDVGVYYCGQGTQFPFTFGSGTKVEIK
kon (M⁻¹ s⁻¹): 25800

Binder: EGFR-CD3 DuetMab with anti-CD3 variant AZ Vκ 29 + AZ VH SN82 (bispecific antibody, part only; not given: anti-EGFR arm, constant regions, V domains shown, not shown: another chain or arm of the molecule; a dimerising Fc or GST; small tags and cut ends) VH: EVQLVESGGALVKPGGSLRLSCAASGFTFSNAWMHWVRQAPGKQLEWVAQIKDRSQTYATYYAESVKGRFTISRDDSKNTLYLQMNSLKTEDTAVYYCRGVYYANTPFDYWGQGTLVTVSS VL: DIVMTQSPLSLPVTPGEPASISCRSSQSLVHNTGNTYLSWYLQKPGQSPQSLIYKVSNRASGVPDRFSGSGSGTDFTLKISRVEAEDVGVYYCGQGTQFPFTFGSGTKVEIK
kon (M⁻¹ s⁻¹): 22700

Binder: EGFR-CD3 DuetMab with anti-CD3 variant AZ Vκ 26 + AZ VH SN79 (bispecific antibody, part only; not given: anti-EGFR arm, constant regions, V domains shown, not shown: another chain or arm of the molecule; a dimerising Fc or GST; small tags and cut ends) VH: EVQLVESGGALVKPGGSLRLSCAASGFTFSNAWMHWVRQAPGKQLEWVAQIKDRSQTYATYYAESVKGRFTISRDDSKNTLYLQMNSLKTEDTAVYYCRGVYYAVTPFDYWGQGTLVTVSS VL: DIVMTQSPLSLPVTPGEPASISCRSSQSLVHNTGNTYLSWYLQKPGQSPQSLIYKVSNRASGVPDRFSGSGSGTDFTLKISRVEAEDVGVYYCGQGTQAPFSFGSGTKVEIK
kon (M⁻¹ s⁻¹): 18700

Binder: EGFR-CD3 DuetMab with anti-CD3 variant AZ Vκ 26 + AZ VH R79 (bispecific antibody, part only; not given: anti-EGFR arm, constant regions, V domains shown, not shown: another chain or arm of the molecule; a dimerising Fc or GST; small tags and cut ends) VH: EVQLVESGGALVKPGGSLRLSCAASGFTFTRAWMHWVRQAPGKQLEWVAQIKDRSQTYATYYAESVKGRFTISRDDSKNTLYLQMNSLKTEDTAVYYCRGVYYAVTPFDYWGQGTLVTVSS VL: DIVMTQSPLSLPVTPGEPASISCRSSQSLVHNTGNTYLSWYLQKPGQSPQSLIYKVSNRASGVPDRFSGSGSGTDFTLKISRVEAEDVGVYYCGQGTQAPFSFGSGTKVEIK
kon (M⁻¹ s⁻¹): 32700
